Molecular target: human TYK2 (JH2domain-pseudokinase) (Homo sapiens (Human), UniProt P29597)
Sequence (P29597 556-888): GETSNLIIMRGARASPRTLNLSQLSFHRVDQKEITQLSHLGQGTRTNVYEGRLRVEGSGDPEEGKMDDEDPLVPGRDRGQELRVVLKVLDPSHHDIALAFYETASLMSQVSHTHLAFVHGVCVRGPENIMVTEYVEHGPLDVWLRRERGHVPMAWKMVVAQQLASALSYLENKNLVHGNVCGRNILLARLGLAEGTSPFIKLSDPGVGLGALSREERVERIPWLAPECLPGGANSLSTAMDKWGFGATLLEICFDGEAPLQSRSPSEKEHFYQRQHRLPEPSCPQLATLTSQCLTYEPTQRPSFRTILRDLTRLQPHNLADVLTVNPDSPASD
Experiment: TYK2 JH2 Domain Binding Assay (KINOMEscan)
Conditions: 11-point 3-fold dilution, top concentration 30,000 nM, duplicate; read-out: hTYK2_JH2_Binding (Kd; nM)
# Kd listing for each entry below

Some solved cases for reference:
| Compound | Test System | Measurement |
| --- | --- | --- |
| CNc1cc(Nc2cccn(C3CC(F)(F)C3)c2=O)nc2c(C(=O)N[C@@H]3CC[C@H](O)C3)cnn12 | human TYK2 (JH2domain-pseudokinase) (Homo sapiens (Human), UniProt P29597) | 0.2 to 1 nM |
| CNc1cc(Nc2cccn([C@@H]3C[C@H]3F)c2=O)nc2c(C(=O)N[C@H]3CC[C@@H]3OC)cnn12 | human TYK2 (JH2domain-pseudokinase) (Homo sapiens (Human), UniProt P29597) | 0.2 to 1 nM |
| CNc1cc(-c2cn(C3COC3)c3ncccc23)nc2c(C(=O)N[C@@H]3CC[C@H]3F)cnn12 | human TYK2 (JH2domain-pseudokinase) (Homo sapiens (Human), UniProt P29597) | < 0.2 nM |
| CNc1ccc(-c2cc(NC)n3ncc(C(=O)NC4CCC4(F)F)c3n2)n2ccnc12 (centres unmarked) | human TYK2 (JH2domain-pseudokinase) (Homo sapiens (Human), UniProt P29597) | < 0.2 nM |

Ask: Which value of Kd has been reported for CNc1cc(Nc2cccn(C3CCOCC3)c2=O)nc2c(C(=O)N[C@@H]3C[C@H]3OC)cnn12 in the records?
Reply: < 0.2 nM

====

Molecular target: human TYK2 (JH2domain-pseudokinase) (Homo sapiens (Human))
Experiment: TYK2 JH2 Domain Binding Assay (KINOMEscan)
Settings: 11-point 3-fold dilution, top concentration 30,000 nM, duplicate; read-out: hTYK2_JH2_Binding (Kd; nM)
# Kd listing for each entry below

Some solved cases for reference:
| Compound | Measurement |
| --- | --- |
| CNc1cc(Nc2cccn([C@H]3CCOC[C@H]3OC)c2=O)nc2c(-c3cn(C(C)C)nn3)cnn12 | > 10 nM |
| CNc1cc(Nc2cccn(C3CC(F)(F)C3)c2=O)nc2c(C(=O)N[C@H]3CC[C@H](O)C3)cnn12 | 0.2 to 1 nM |
| CNc1ccc(-c2cc(NC)n3ncc(C(=O)NC4CC4)c3n2)n2ccnc12 | 0.2 to 1 nM |
| CNc1cc(-c2cn(C3CCOCC3)c3ncc(F)cc23)nc2c(C(=O)N[C@H]3CC[C@@H]3O)cnn12 | < 0.2 nM |
| CNc1cc(Nc2cccn(-c3ncco3)c2=O)nc2c(C(=O)N[C@@H]3CC[C@@H](OC)C3)cnn12 | 0.2 to 1 nM |

Ask: Which value of Kd has been reported for CNc1cc(Nc2cccn(C(C)C)c2=O)nc2c(C(=O)N[C@@H]3C[C@H]3OC)cnn12 in the records?
Reply: 0.2 to 1 nM

Ask: Which value of Kd has been reported for O=C(NC1CC[C@@H]1F)c1cnn2c3c(c(-c4cn([C@H]5C[C@H](O)C5)c5ncccc45)nc12)OCCN3 (some centres unmarked) in the records?
Reply: < 0.2 nM

Ask: Which value of Kd has been reported for CNc1cc(Nc2cccn(-c3ocnc3C)c2=O)nc2c(C(=O)N[C@H]3CC[C@@H]3F)cnn12 in the records?
Reply: < 0.2 nM
